Consider the following compounds; for each one, report its pIC50.
Tested on: S. aureus (ATCC29213)
Experiment: 50% growth inhibitory concentration (IC50) determination assay, S. aureus
Type: cell-based
Conditions: Staphylococcus aureus, ATCC29213; Iso-Sensitest broth, growth by OD 600 nm over 16 h; <0.098 = detection limit
pIC50: −log10 of the molar value.

| compound | pIC50 |
| --- | --- |
| CNc1cc(F)c(F)c2c1[nH]c1ncc(-c3ccc4c(Cl)cc(C(=O)O)c(=O)n4c3)c(N3CC[C@H]4CN(C)C[C@H]43)c12 (relative stereo) | > 7.01 |
| CNc1cc(F)c(Cl)c2c1[nH]c1ncc(-c3ccc4ccc(C(=O)O)c(=O)n4c3)c(N3CC[C@@]4(C[C@H]4N)C3)c12 [Example 5.01C] | > 7.01 |

Switching to the query record.
Q. Reported pIC50, compound CNc1cc(F)c(C#N)c2c1[nH]c1ncc(-c3ccc4ccc(C(=O)O)c(=O)n4c3)c(N3CC[C@H]4CCN(C)C4C3)c12 (stereo in doubt) : ____
A. 6.86

====

Tested on: multiple species and strains
Test: microbe, parasite or virus in culture
Conditions: Acinetobacter baumannii, ATCCBAA747, read-out: MIC S3, A. baumannii ATCC BAA-747
The label satisfied is reserved for MIC strictly under 0.3 µg/mL; not satisfied covers values equal to or above it.

These recorded examples may help you get a feel for the data.
| compound | qualitativeLabel |
| --- | --- |
| CNc1cc(F)c(C#N)c2c1[nH]c1ncc(-c3ccc4ccc(C(=O)O)c(=O)n4c3)c(N3C[C@H]4CCN(C)[C@H]4C3)c12 (single isomer, unassigned) [Example 1.11] | satisfied |
| CNc1cc(F)c(F)c2c1[nH]c1ncc(-c3ccc4ccc(C(=O)O)c(=O)n4c3)c(N3CC[C@@]4(C[C@@H]4N)C3)c12 (single isomer, unassigned) [Example 4.01A] | not satisfied |
| CNc1cc(F)c(Cl)c2c1[nH]c1ncc(-c3ccc4ccc(C(=O)O)c(=O)n4c3)c(N3CC[C@]4(C[C@H]4N)C3)c12 [Example 5.01B] | not satisfied |
| CNc1cc(F)c(F)c2c1[nH]c1ncc(-c3ccc4ccc(C(=O)O)c(=O)n4c3)c(N3CC[C@H]4CN(C)C[C@H]43)c12 [Example 1.04] | satisfied |
| CNc1cc(F)c(F)c2c1[nH]c1ncc(-c3ccc4ccc(C(=O)O)c(=O)n4c3)c(N3CCC4CN(C)C[C@@H]43)c12 (stereo in doubt) [Example 1.03] | satisfied |
| CNc1cc(F)c(F)c2c1[nH]c1ncc(-c3ccc4c(Cl)cc(C(=O)O)c(=O)n4c3)c(N3CC[C@H]4CN(C)C[C@H]43)c12 (relative stereo) [Example 2.11] | not satisfied |
| CNc1cc(F)c(Cl)c2c1[nH]c1ncc(-c3ccc4ccc(C(=O)O)c(=O)n4c3)c(N3CC[C@@]4(C[C@H]4N)C3)c12 [Example 5.01C] | not satisfied |
| CNc1cc(F)cc2c1[nH]c1nc(Oc3cnc(C)nc3)nc(N3C[C@H]4C[C@@H]3C[C@H]4N)c12 [GP-6, reference compound] | satisfied |

Q. Just wondering, is MIC of CNc1cc(F)c(F)c2c1[nH]c1ncc(-c3ccc4ccc(C(=O)O)c(=O)n4c3)c(N3CC[C@]4(C[C@H]4N)C3)c12 [Example 4.01C] below 0.3 µg/mL?
A. not satisfied

Q. Criterion: MIC strictly below 0.3 µg/mL. Is it met by CNc1cc(F)c(F)c2c1[nH]c1ncc(-c3ccc4ccc(C(=O)O)c(=O)n4c3)c(N3C[C@H]4CCN(C)[C@H]4C3)c12 [Example 3.03A] ?
A. satisfied

Q. Identify whether the compound CNc1cc(F)c(F)c2c1[nH]c1ncc(-c3ccc4ccc(C(=O)O)c(=O)n4c3)c(N(C)C)c12 [Example 1.01] records MIC below 0.3 µg/mL.
A. satisfied

Q. Strictly below 0.3 µg/mL in MIC? CNc1cc(F)c(F)c2c1[nH]c1ncc(-c3ccc4ccc(C(=O)O)c(=O)n4c3)c(N3CCC(C4(N)CC4)C3)c12 (stereo not drawn) [Example 1.21]
A. not satisfied

====

Give MIC for every item shown.
Tested on: multiple species and strains
Assay: microbe, parasite or virus in culture
Conditions: Klebsiella pneumoniae, ATCCBAA2146, read-out: MIC S6, K. pneumoniae ATCC BAA-2146
Protocol: The MIC of antibacterial compounds against multiple species and strains was determined using the broth microdilution method according to M07-A10 Clinical and Laboratory Standards Institute (CLSI) guidelines (CLSI (2015) Methods for dilution antimicrobial susceptibility tests for bacteria that grow aerobically; Approved Standard, Tenth Edition. CLSI Document M7-A10 (ISBN 1-56238-987-4). Wayne, Pa.: Clinical and Laboratory Standards Institute, 19087, USA.). […]
Answers are plain numbers, in µg/mL.

Example entries and their recorded answers appear below.
| compound | endpointLabel | measurementUnit | recordedMeasurement |
| --- | --- | --- | --- |
| CNc1cc(F)c(C#N)c2c1[nH]c1ncc(-c3ccc4ccc(C(=O)O)c(=O)n4c3)c(N(C)C)c12 [Example 1.18] | MIC | µg/mL | 0.735 |
| CNc1cc(F)c(F)c2c1[nH]c1ncc(-c3ccc4ccc(C(=O)O)c(=O)n4c3)c(N3CC[C@H]4CCN(C)[C@H]4C3)c12 [Example 3.04A] | MIC | µg/mL | 1.75 |
| CNc1cc(F)c(F)c2c1[nH]c1ncc(-c3cc(C)c4ccc(C(=O)O)c(=O)n4c3)c(N(C)C)c12 [Example 1.20] | MIC | µg/mL | 2.98 |
| CNc1cc(F)c(F)c2c1[nH]c1ncc(-c3ccc4c(Cl)cc(C(=O)O)c(=O)n4c3)c(N3CC[C@H]4CN(C)C[C@H]43)c12 (relative stereo) [Example 2.11] | MIC | µg/mL | 4.33 |
| CNc1cc(F)c(F)c2c1[nH]c1ncc(-c3ccc4ccc(C(=O)O)c(=O)n4c3)c(N3CC[C@H]4CN(C)C[C@H]43)c12 [Example 1.04] | MIC | µg/mL | 1.03 |

Lab note: next compound to report on.
Q. Which value of MIC has been reported for CNc1cc(F)c(F)c2c1[nH]c1ncc(-c3ccc4ccc(C(=O)O)c(=O)n4c3)c(N3CCC(C4(N)CC4)C3)c12 (stereo not drawn) [Example 1.21] in the records?
A. 4.83

====

Test: Cytotoxicity assay (HepG2, CellTiter-Blue)
Assay type: cell-based
Conditions: human; HepG2 cells, 3 days treatment; >100 = detection limit
endpointLabel: CC50 at 3 days (µM)
Numbers only, in µM.

Below, each entry is followed by its recorded CC50 at 3 days result.
| compound | CC50 at 3 days [µM] |
| --- | --- |
| CNc1cc(F)cc2c1[nH]c1ncc(-c3ccc4ccc(C(=O)O)c(=O)n4c3)c(N3CCOCC3)c12 [Example 1.02] | 24.1 |
| CNc1cc(F)cc2c1[nH]c1nc(Oc3cnc(C)nc3)nc(N3C[C@H]4C[C@@H]3C[C@H]4N)c12 [GP-6, reference compound] | 5.6 |
| CNc1cc(F)c(F)c2c1[nH]c1ncc(-c3ccc4ccc(C(=O)O)c(=O)n4c3)c(N3CC4[C@H](CC[C@H]4N(C)C)C3)c12 (some centres unmarked) [Example 1.05] | 15.5 |

Let's switch to this compound now.
Q. Reported CC50 at 3 days, compound CNc1cc(F)c(C#N)c2c1[nH]c1ncc(-c3ccc4ccc(C(=O)O)c(=O)n4c3)c(N3CC[C@H]4CN(C)C[C@H]43)c12 [Example 1.14] : ____
A. 15.3

====

Assay: Cytotoxicity assay (HepG2, CellTiter-Blue)
Format: cell-based
Settings: human; HepG2 cells, 3 days treatment; >100 = detection limit
endpointLabel: CC50 at 3 days (µM)
Numbers only, in µM.

Answered examples (3):
| molecule | measurementUnit | CC50 at 3 days |
| --- | --- | --- |
| CNc1cc(F)cc2c1[nH]c1ncc(-c3ccc4ccc(C(=O)O)c(=O)n4c3)c(N3CC[C@H]4CN(C)C[C@H]43)c12 (single isomer, unassigned) [Example 3.02A] | µM | 41.3 |
| CNc1cc(F)c(C#N)c2c1[nH]c1ncc(-c3ccc4ccc(C(=O)O)c(=O)n4c3)c(N3CC4C(N(C)C)CO[C@@H]4C3)c12 (some centres unmarked) | µM | 75.4 |
| CNc1cc(F)c(F)c2c1[nH]c1ncc(-c3ccc4c(CN(C)C)cc(C(=O)O)c(=O)n4c3)c(N3CC[C@H]4CN(C)C[C@H]43)c12 (relative stereo) | µM | 46.4 |

Q. Entry under review: CNc1cc(F)c(F)c2c1[nH]c1ncc(-c3ccc4c(CN5CCOCC5)cc(C(=O)O)c(=O)n4c3)c(N3CC[C@H]4CN(C)C[C@H]43)c12 (relative stereo) . Reported CC50 at 3 days?
A. 86.9
